target: PKC theta (Homo sapiens); construct: purchased Invitrogen 7101; assay: Fluorescence polarization (FP) PKC inhibition assay, Protein Kinase C Assay Kit, Red (Invitrogen); type: biochemical; conditions: enzyme 20 ng/ml, ATP 2.5 μM, substrate […] 1 μM
Sequence (Q04759 whole entry): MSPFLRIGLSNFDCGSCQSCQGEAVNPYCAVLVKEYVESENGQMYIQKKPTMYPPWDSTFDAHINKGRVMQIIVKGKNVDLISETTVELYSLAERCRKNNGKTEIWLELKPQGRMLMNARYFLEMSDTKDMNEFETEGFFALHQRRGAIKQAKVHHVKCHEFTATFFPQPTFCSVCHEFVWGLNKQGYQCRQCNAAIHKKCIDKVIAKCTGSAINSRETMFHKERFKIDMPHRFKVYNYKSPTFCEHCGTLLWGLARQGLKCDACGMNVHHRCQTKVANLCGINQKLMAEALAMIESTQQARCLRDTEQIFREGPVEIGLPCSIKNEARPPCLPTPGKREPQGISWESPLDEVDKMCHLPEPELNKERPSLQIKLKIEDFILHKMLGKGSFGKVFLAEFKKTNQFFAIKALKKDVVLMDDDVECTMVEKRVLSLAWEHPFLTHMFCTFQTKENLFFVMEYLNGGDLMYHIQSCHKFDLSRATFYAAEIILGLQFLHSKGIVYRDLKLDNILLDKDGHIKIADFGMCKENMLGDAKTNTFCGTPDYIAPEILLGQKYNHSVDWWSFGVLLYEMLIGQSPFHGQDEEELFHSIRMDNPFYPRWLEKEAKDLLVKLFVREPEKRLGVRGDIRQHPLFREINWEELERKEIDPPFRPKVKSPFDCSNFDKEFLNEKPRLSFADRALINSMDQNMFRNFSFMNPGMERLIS
attribute-measured: pIC50
One number for each entry, as −log10 of the molar value.

Solved entries (count: 10):
{"columns": ["molecule", "reported-measurement"],
 "data": [
  ["CCC(N)c1ccc(C(=O)Nc2ccncc2)cc1 (stereo not drawn)", 5.54],
  ["O=C(Nc1ccncc1)c1ccc(C2=NCCN2)cc1", 4.27],
  ["NC(c1ccc(C(=O)Nc2ccnc3[nH]ccc23)cc1)C1CCCC1 (stereo not drawn)", 6.20],
  ["CC(N)c1ccc(C(=O)Nc2ccnc3[nH]ccc23)s1 (stereo not drawn)", 5.49],
  ["NCc1ccc(C(=O)Nc2ccncc2)cc1", 5.04],
  ["CC(C)(C)CC(N)c1ccc(C(=O)Nc2ccncc2)cc1 (stereo not drawn)", 4.91],
  ["CC(N)c1ccc(C(=O)Nc2ccncc2)c2ccccc12 (stereo not drawn)", 5.11],
  ["NC(c1ccc(C(=O)Nc2ccncc2)cc1)C1CC1 (stereo not drawn)", 5.41],
  ["NC(c1ccc(C(=O)Nc2ccncc2)cc1)C1CCCC1 (stereo not drawn)", 5.77],
  ["O=C(Nc1ccncc1)c1ccc(C2CCCN2)cc1 (stereo not drawn)", 4.76]
]}

# per-item lookup of pIC50; items listed below
1. CC(N)c1ccc(C(=O)Nc2ccnc3[nH]ccc23)cc1 (stereo not drawn)
2. O=C(Nc1ccnc2[nH]ccc12)c1ccc(C2CCCCN2)cc1 (stereo not drawn)
3. COc1ccc(C(N)c2ccc(C(=O)Nc3ccncc3)cc2)cc1 (stereo not drawn)
4. NC(c1ccccc1)c1ccc(C(=O)Nc2ccncc2)cc1 (stereo not drawn)

Response:
1: 6.11; 2: 5.66; 3: 4.10; 4: 4.95

* * *

molecular target: PKC theta (Homo sapiens); construct: purchased Invitrogen 7101; experiment: Fluorescence polarization (FP) PKC inhibition assay, Protein Kinase C Assay Kit, Red (Invitrogen); type: biochemical; conditions: enzyme 20 ng/ml, ATP 2.5 μM, substrate […] 1 μM
pIC50: −log10 of the molar value.
attribute-measured: pIC50

Solved entries (count: 2):
{"columns": ["compound", "reported-measurement"],
 "data": [
  ["NCc1cccc(C(=O)Nc2ccncc2)c1", "< 4.00"],
  ["O=C(Nc1ccncc1)c1ccc(C2CCCCN2)cc1 (stereo not drawn)", 5.09]
]}

Could you now consider this next compound?
Query: Which measured pIC50 belongs to NCc1ccc(-c2nc(-c3ccncc3)no2)cc1 , tested on PKC theta (Homo sapiens)?
Response: < 4.00

* * *

Could you please report measured IC50 for the items listed next?
biological target: PKC epsilon (Homo sapiens); construct: purchased Invitrogen 6906; assay: Fluorescence polarization (FP) PKC inhibition assay, Protein Kinase C Assay Kit, Red (Invitrogen); format: biochemical; conditions: enzyme 10 ng/ml, ATP 2.5 μM, substrate […] 1 μM
Sequence (Q02156 whole entry): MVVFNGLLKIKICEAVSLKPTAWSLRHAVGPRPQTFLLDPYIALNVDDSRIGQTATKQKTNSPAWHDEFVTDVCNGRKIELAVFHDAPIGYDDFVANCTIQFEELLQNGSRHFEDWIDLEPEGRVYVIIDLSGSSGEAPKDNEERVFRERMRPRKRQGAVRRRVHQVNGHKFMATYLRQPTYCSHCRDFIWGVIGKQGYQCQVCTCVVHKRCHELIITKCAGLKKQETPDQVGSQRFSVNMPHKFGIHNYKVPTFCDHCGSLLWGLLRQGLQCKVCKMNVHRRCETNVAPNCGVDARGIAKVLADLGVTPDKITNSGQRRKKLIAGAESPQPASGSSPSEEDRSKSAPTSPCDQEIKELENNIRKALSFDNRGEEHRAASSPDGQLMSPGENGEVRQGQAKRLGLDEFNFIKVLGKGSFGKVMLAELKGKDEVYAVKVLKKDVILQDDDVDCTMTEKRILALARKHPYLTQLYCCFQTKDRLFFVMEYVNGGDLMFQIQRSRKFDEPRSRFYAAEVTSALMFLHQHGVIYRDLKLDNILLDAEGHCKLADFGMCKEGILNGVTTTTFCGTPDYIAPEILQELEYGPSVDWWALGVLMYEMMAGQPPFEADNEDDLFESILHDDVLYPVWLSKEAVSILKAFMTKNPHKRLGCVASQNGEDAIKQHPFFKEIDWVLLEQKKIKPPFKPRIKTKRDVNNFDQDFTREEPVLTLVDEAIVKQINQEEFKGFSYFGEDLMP
Numbers only, in µM.

{"columns": ["compound", "IC50 [µM]"],
 "data": [
  ["NC(c1ccc(C(=O)Nc2ccncc2)cc1)C1CC1 (stereo not drawn) [Compound 26]", 0.72]
]}

# per-item lookup of IC50; items listed below
1. O=C(Nc1ccncc1)c1ccc(C2CCCN2)cc1 (stereo not drawn) [Compound 30]
2. NCc1ccc(C(=O)Nc2ccncn2)cc1 [Compound 21]
3. O=C(Nc1ccnc2[nH]ccc12)c1ccc(C2CCCCN2)cc1 (stereo not drawn) [Compound 44]
4. CC(C)(C)CC(N)c1ccc(C(=O)Nc2ccncc2)cc1 (stereo not drawn) [Compound 25]
5. CCC(N)c1ccc(C(=O)Nc2ccncc2)cc1 (stereo not drawn) [Compound 24]
6. CC(N)c1ccc(C(=O)Nc2ccncc2)cc1 (stereo not drawn) [Compound 23]
7. NC[C@H]1CC[C@H](C(=O)Nc2ccncc2)CC1 [Compound 19]
8. NCc1ccc(C(=O)Nc2ccncc2)cc1 [Compound 20]

Response:
9.8
34.4
1.6
4.98
0.65
1.21
5.12
6.23

# per-item lookup of IC50; items listed below
1. COc1ccc(C(N)c2ccc(C(=O)Nc3ccncc3)cc2)cc1 (stereo not drawn) [Compound 37]
2. O=C(Nc1ccncc1)c1ccc(C2=NCCCN2)cc1 [Compound 34]
3. CC(N)c1ccc(C(=O)Nc2ccncc2)s1 (racemic) [Compound 22]

Response:
18.7
19.5
16

* * *

Could you please report measured pIC50 for the items listed next?
target: PKC gamma (Homo sapiens, UniProt P05129); construct: purchased Invitrogen 9343; assay: Fluorescence polarization (FP) PKC inhibition assay, Protein Kinase C Assay Kit, Red (Invitrogen); format: biochemical; conditions: enzyme 20 ng/ml, ATP 2.5 μM, substrate […] 1 μM
pIC50: −log10 of the molar value.

Solved entries (count: 8):
{"columns": ["compound", "assay-target", "pIC50"],
 "data": [
  ["CC(N)c1ccc(C(=O)Nc2ccncc2)s1 (racemic)", "PKC gamma (Homo sapiens, UniProt P05129)", "< 4.00"],
  ["NC[C@H]1CC[C@H](C(=O)Nc2ccccn2)CC1", "PKC gamma (Homo sapiens, UniProt P05129)", "< 4.00"],
  ["NCc1ccc(-c2nc3ccncc3[nH]2)cc1", "PKC gamma (Homo sapiens, UniProt P05129)", "< 4.00"],
  ["O=C(Nc1ccncc1)c1ccc(C2=NCCCN2)cc1", "PKC gamma (Homo sapiens, UniProt P05129)", "< 4.00"],
  ["CC(N)c1ccc(C(=O)Nc2ccncc2)cc1 (stereo not shown)", "PKC gamma (Homo sapiens, UniProt P05129)", "< 4.00"],
  ["NCc1ccc(S(=O)(=O)Nc2ccncc2)cc1", "PKC gamma (Homo sapiens, UniProt P05129)", "< 4.00"],
  ["COc1ccc(C(N)c2ccc(C(=O)Nc3ccncc3)cc2)cc1 (stereo not shown)", "PKC gamma (Homo sapiens, UniProt P05129)", "< 4.00"],
  ["NCc1ccc(C(=O)Nc2ccncc2)cc1", "PKC gamma (Homo sapiens, UniProt P05129)", "< 4.00"]
]}

# per-item lookup of pIC50; items listed below
1. O=C(Nc1ccnc2[nH]ccc12)c1ccc2c(c1)CCNC2
2. O=C(Nc1ccncc1)c1ccc(C2=NCCN2)cc1
3. NC(c1ccc(C(=O)Nc2ccncc2)cc1)C1CCCC1 (stereo not shown)
4. O=C(Nc1ccncc1)c1ccc(C2CCCN2)cc1 (stereo not shown)
5. NC[C@H]1CC[C@H](C(=O)NCc2ccncc2)CC1
6. NC(c1ccc(C(=O)Nc2ccnc3[nH]ccc23)cc1)C1CCCC1 (stereo not shown)
7. NC(c1ccc(C(=O)Nc2ccncc2)cc1)C1CC1 (stereo not shown)

Response:
1: 4.66; 2: < 4.00; 3: 4.12; 4: < 4.00; 5: < 4.00; 6: 4.76; 7: 4.44

* * *

Target: PKC zeta (Homo sapiens)
Construct: purchased Invitrogen 9232
Sequence (Q05513 1-592): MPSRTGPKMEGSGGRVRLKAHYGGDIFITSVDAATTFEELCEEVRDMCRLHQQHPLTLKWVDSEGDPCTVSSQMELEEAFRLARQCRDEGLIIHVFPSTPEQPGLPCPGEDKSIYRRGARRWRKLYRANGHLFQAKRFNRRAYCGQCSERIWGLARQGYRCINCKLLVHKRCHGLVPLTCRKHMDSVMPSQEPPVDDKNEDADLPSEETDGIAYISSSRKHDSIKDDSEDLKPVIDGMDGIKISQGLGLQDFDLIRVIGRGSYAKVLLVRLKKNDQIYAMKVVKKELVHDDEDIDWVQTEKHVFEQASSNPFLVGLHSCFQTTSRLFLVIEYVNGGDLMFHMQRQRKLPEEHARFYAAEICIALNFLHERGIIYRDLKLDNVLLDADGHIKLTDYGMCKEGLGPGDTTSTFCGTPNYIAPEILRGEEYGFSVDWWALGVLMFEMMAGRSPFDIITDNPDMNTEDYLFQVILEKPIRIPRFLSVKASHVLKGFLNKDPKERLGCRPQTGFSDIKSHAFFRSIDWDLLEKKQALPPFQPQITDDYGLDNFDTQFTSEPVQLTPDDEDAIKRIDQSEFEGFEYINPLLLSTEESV
Experiment: Fluorescence polarization (FP) PKC inhibition assay, Protein Kinase C Assay Kit, Red (Invitrogen)
Format: biochemical
Settings: enzyme 20 ng/ml, ATP 2.5 μM, substrate […] 1 μM
pIC50: −log10 of the molar value.
attribute-measured: pIC50

Solved entries (count: 5):
{"columns": ["compound", "pIC50"],
 "data": [
  ["NCc1ccc(NCc2ccncc2)cc1 [Compound 11]", "< 4.00"],
  ["CC(N)c1ccc(C(=O)Nc2ccncc2)cc1 (stereo not shown) [Compound 23]", 4.65],
  ["NC(c1ccc(C(=O)Nc2ccncc2)cc1)C1CC1 (stereo not shown) [Compound 26]", 4.38],
  ["O=C(Nc1ccncc1)c1ccc2c(c1)CCNC2 [Compound 32]", "< 4.00"],
  ["O=C(Nc1ccnc2[nH]ccc12)c1ccc(C2CCCCN2)cc1 (stereo not shown) [Compound 44]", "< 4.00"]
]}

# per-item lookup of pIC50; items listed below
1. NC[C@H]1CC[C@H](C(=O)Nc2ccncc2)CC1 [Compound 19]
2. NC(c1ccccc1)c1ccc(C(=O)Nc2ccncc2)cc1 (stereo not shown) [Compound 35]
3. NC[C@H]1CC[C@H](C(=O)Nc2ccccn2)CC1 [Compound 7]
4. NCc1ccc(-c2nc3ccncc3[nH]2)cc1 [Compound 14]
5. NCc1ccc(-c2nc(-c3ccncc3)no2)cc1 [Compound 13]

Response:
4.61
< 4.00
< 4.00
< 4.00
< 4.00
